System: Aromatase (Homo sapiens) | Read-out: IC50 | Origin: multiple publications

| SMILES TEXT | IC50 |
| --- | --- |
| COc1ccc2ccc(-c3cccnc3)c(Cl)c2c1F | > 2 µM |
| CCOC(=O)c1cc(-c2ccccc2)nc2c1ccc1[nH]ccc12 | > 10 µM |
| CC1(C)CC(=O)c2c(noc2Cc2ccccc2)C1 | > 31.6 µM |

---

System: Aromatase (Homo sapiens) | Read-out: IC50 | Origin: multiple publications
ASSAYED TARGET: Aromatase (Homo sapiens)
Sequence (P11511 whole entry): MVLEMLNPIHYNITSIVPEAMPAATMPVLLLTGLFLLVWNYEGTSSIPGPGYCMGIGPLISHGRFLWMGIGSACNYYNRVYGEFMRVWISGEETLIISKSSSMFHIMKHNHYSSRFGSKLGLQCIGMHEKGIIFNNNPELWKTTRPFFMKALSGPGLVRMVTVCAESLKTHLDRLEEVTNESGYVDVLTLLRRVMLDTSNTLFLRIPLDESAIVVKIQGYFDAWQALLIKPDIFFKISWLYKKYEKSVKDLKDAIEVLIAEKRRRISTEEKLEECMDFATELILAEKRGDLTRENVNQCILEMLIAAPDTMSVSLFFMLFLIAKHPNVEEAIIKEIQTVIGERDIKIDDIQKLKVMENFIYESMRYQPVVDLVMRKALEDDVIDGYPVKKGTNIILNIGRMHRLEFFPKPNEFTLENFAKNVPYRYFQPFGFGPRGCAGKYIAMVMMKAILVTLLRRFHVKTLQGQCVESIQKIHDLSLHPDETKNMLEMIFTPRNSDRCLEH

| COMPOUND | ASSAYED TARGET | UNIT TEXT | READING QUALIFIER | IC50 |
| --- | --- | --- | --- | --- |
| Nc1ccc(C2(C3CCCCC3)CCC(=O)NC2=O)cc1 (stereo in doubt; 2) | Aromatase (Homo sapiens) | nM | = | 300 |
| O=[N+]([O-])c1ccc(C(c2[nH]c3ccccc3c2CCNS(=O)(=O)c2ccc(Br)cc2)c2[nH]c3ccccc3c2CCNS(=O)(=O)c2ccc(Br)cc2)cc1 | Aromatase (Homo sapiens) | nM | = | 2700 |
| N#Cc1ccc(Cn2cc(COc3ccc(C#N)cc3)nn2)cc1 | Aromatase (Homo sapiens) | nM | = | 9160 |
| c1cncc(-c2csc(-c3cccnc3)n2)c1 | Aromatase (Homo sapiens) | nM | = | 4 |
| N#Cc1ccc(-c2ccc(O)c(Cl)c2)cc1Cn1cncn1 | Aromatase (Homo sapiens) | nM | = | 74 |
| COc1cccc(COc2ccc3c(Cn4ccnc4)cc(=O)oc3c2)c1 | Aromatase (Homo sapiens) | nM | = | 549 |
| Cc1nnc2n1-c1c(F)cc(-c3cccnc3)cc1CC2 | Aromatase (Homo sapiens) | nM | > | 10000 |
| CN1C(=O)CCc2cc(-c3cccnc3)ccc21 | Aromatase (Homo sapiens) | nM | = | 426 |
| O=C1CCc2cc(C(c3ccncc3)c3cccc(Cl)c3)cc3c2N1CC3 (stereo unspecified) | Aromatase (Homo sapiens) | nM | = | 19 |
| c1ccc(-c2nsc(-c3ccccc3)n2)cc1 | Aromatase (Homo sapiens) | nM | > | 50000 |
| Cc1nnc2n1-c1c(F)cc(-c3cncc(-c4ccccc4)c3)cc1CC2 | Aromatase (Homo sapiens) | nM | > | 10000 |
